experiment: Inhibition of rat brain (Na+,K+)ATPase in presence of appropriate Mg2+ and Na+; conditions: read-out: I50
measureName: pIC50
For clarity, pIC50 is expressed as the negative log10 of concentration in mol/L.

Lookup: Provide only the value of recorded pIC50 for C=C1C(=O)OC[C@@H]1[C@H]1CC=C2[C@@H]3CC[C@@H]4C[C@@H](O)CC[C@]4(C)[C@H]3CC[C@@]21C
Found: 4.52

Lookup: Provide only the value of recorded pIC50 for C[C@]12CC[C@H](O)C[C@H]1CC[C@@H]1[C@@H]2CC[C@]2(C)[C@@H]([C@H]3COC(=O)C3)CC[C@]12O
Found: 4.85

Lookup: Provide only the value of recorded pIC50 for C=C1C(=O)OC[C@H]1[C@H]1CC[C@]2(O)[C@@H]3CC[C@@H]4C[C@@H](O)CC[C@]4(C)[C@H]3CC[C@]12C
Found: 4.15

Lookup: Provide only the value of recorded pIC50 for C[C@]12CC[C@H](O)C[C@H]1CC[C@@H]1[C@@H]2CC[C@]2(C)[C@@H](C3=CC(=O)OC3)CC[C@]12O
Found: 6.46

Lookup: Provide only the value of recorded pIC50 for C=C1C(=O)OC[C@H]1[C@H]1CC=C2[C@@H]3CC[C@@H]4C[C@@H](O)CC[C@]4(C)[C@H]3CC[C@@]21C
Found: 4.00

Lookup: Provide only the value of recorded pIC50 for C[C@]12CC[C@H](O)C[C@H]1CC[C@@H]1[C@@H]2CC[C@]2(C)[C@@H]([C@@H]3COC(=O)C3)CC[C@]12O
Found: 4.85

Lookup: Provide only the value of recorded pIC50 for C=C1C(=O)OC[C@@H]1[C@H]1CC[C@]2(O)[C@@H]3CC[C@@H]4C[C@@H](O)CC[C@]4(C)[C@H]3CC[C@]12C
Found: 4.15

###

experiment: Inhibition of rat brain (Na+,K+)ATPase incubated for 10 mins followed by Kcl added in presence of appropriate Mg2+ and Na+; details: read-out: I50
measureName: IC50 (µM)
Numbers only; they are read as µM.

Lookup: Provide only the value of recorded IC50 for C=C1C(=O)OC[C@H]1[C@H]1CC[C@]2(O)[C@@H]3CC[C@@H]4C[C@@H](O)CC[C@]4(C)[C@H]3CC[C@]12C
Found: 60

Lookup: Provide only the value of recorded IC50 for C=C1C(=O)OC[C@@H]1[C@H]1CC[C@]2(O)[C@@H]3CC[C@@H]4C[C@@H](O)CC[C@]4(C)[C@H]3CC[C@]12C
Found: 70

Lookup: Provide only the value of recorded IC50 for C=C1C(=O)OC[C@H]1[C@H]1CC=C2[C@@H]3CC[C@@H]4C[C@@H](O)CC[C@]4(C)[C@H]3CC[C@@]21C
Found: 100

Lookup: Provide only the value of recorded IC50 for C=C1C(=O)OC[C@@H]1[C@H]1CC=C2[C@@H]3CC[C@@H]4C[C@@H](O)CC[C@]4(C)[C@H]3CC[C@@]21C
Found: 20

Lookup: Provide only the value of recorded IC50 for C[C@]12CC[C@H](O)C[C@H]1CC[C@@H]1[C@@H]2CC[C@]2(C)[C@@H]([C@@H]3COC(=O)C3)CC[C@]12O
Found: 11

Lookup: Provide only the value of recorded IC50 for C[C@]12CC[C@H](O)C[C@H]1CC[C@@H]1[C@@H]2CC[C@]2(C)[C@@H](C3=CC(=O)OC3)CC[C@]12O
Found: 0.35

Lookup: Provide only the value of recorded IC50 for C[C@]12CC[C@H](O)C[C@H]1CC[C@@H]1[C@@H]2CC[C@]2(C)[C@@H]([C@H]3COC(=O)C3)CC[C@]12O
Found: 12

// data source = ChEMBL document CHEMBL3243993
